- Test system: UACC-257 melanoma
- TEST METHOD NOTES: NCI tumour cell line growth inhibition, 48 h
OUTCOME MEASURE: TGI

| COMPOUND | TESTED ON | TGI |
| --- | --- | --- |
| COc1ccc(C2C3=C(Nc4ncnn42)c2ccccc2OC3c2ccccc2)cc1 (stereo not given) | UACC-257 melanoma | > 100 µM |

Give me TGI for each of these compounds, listed below.
1. C=C1CC[C@H](O)C(C)(C)[C@@H]1CC/C(C)=C/CC/C=C(\C)CC/C=C(\C)CCC=C(C)C
2. CCn1c2ccccc2n2c(=O)c3c(c(C#N)c12)CCCC3
3. COc1cc(NS(=O)(=O)c2ccc(-c3cnc(C4CC4)o3)cc2)ccc1F
4. O=C(O)[C@@H]1CSCN1C(=O)[C@@H]1CCC(=S)N1

1: > 100 µM; 2: > 100 µM; 3: 33.9 µM; 4: > 100 µM

Give me TGI for each of these compounds, listed below.
1. Cc1ccc(NC(=O)NCCCOc2ccc(N3C(N)=NC(N)=NC3(C)C)cc2Cl)cc1S(=O)(=O)F
2. COC(=O)[C@H](Cc1c[nH]c2ccccc12)NC(=O)[C@@H](OC)[C@@H]1Cc2cc3cc(OC4CC(OC5CC(O)C(O)C(C)O5)C(O)C(C)O4)c(C)c(O)c3c(O)c2C(=O)[C@H]1OC1CC(OC2CC(OC3CC(C)(O)C(O)C(C)O3)C(O)C(C)O2)C(O)C(C)O1 (stereo not given in full)
3. N.N.O=C([O-])P(=O)([O-])[O-].[Na+].[Pt+4]
4. CC(=O)OC1(C)C=CC(=O)C=C1
5. O=C1CCCC2(c3ccccc3)Nc3ccccc3N12 (stereo not given)

["> 100 µM", "0.124 µM", "> 100 µM", "34.4 µM", "> 100 µM"]

###

- Tested on: PC-3 prostate
- TEST METHOD NOTES: NCI tumour cell line growth inhibition, 48 h; in the data active = GI50 below about 0.43 µM; inactive = the rest
Select the matching outcome among class 1 for active, class 0 for inactive

A selection of reference data follows.
| COMPOUND | LABEL CLASS |
| --- | --- |
| COc1ccc(-n2cc(-c3cc(OC)c(OC)c(OC)c3)[nH]c2=O)cc1Cl | class 0 |
| C=C[C@H]1C[C@@H]2C[C@@H]3[C@H]4C/C=C\C(=O)NCCCC5NC(=O)C(=C(O)/C=C/[C@@H]4CC(=O)[C@H]3[C@@H]2[C@H]1C)C5=O (stereo partly specified) | class 0 |
| Nc1nc(-c2cccc(Cl)c2)c(-c2ccc3ncccc3n2)s1 | class 0 |
| COc1ncc(-c2ccc3ncnc(Nc4cccc(Cl)c4)c3c2)cc1NS(=O)(=O)CCN1CCOCC1 | class 1 |
| COc1cc2c(c(OC)c1OC)C(=O)[C@@H]1c3ccc([N+](=O)[O-])cc3C(=O)N(CCCBr)[C@H]21 | class 0 |
| O=C(/C=C\n1cnc(-c2cc(C(F)(F)F)cc(C(F)(F)F)c2)n1)NNc1cnccn1 | class 1 |
| Cc1ccc(C(=O)Nc2ccc(CN3CCN(C)CC3)c(C(F)(F)F)c2)cc1C#Cc1cnc(N)c2ccccc12 | class 0 |
| COC(=O)C12C3C4C1C1C2C3C41NC(=O)c1csc([C@@H](C[C@H](C(C)C)N(C)C(=O)[C@@H](NC(=O)[C@H]2CCCCN2C)C2CC2)OC(C)=O)n1 (stereo partly specified) | class 1 |
| Cc1ccc2[nH]c(C(=O)NN3C(=O)C(C)SC34CCCC(C)C4)c(-c3ccccc3)c2c1 (stereo unspecified) | class 0 |
| COC(=O)c1c(C)[nH]c(/C=C2\N=C(c3ccc[nH]3)C=C2OC)c1C | class 1 |

Test call, this compound: CC1(C)N=C(N)N=C(N)N1c1ccc(OCc2ccc(S(=O)(=O)F)c(Cl)c2)c(Cl)c1
class 0

Test call, this compound: C=C(C)C1CCC2(C(=O)O)CCC3(C)C(CCC4C5(C)CCC(OC(=O)NCc6ccccc6)C(C)(C)C5CCC43C)C12 (stereo unspecified)
class 0

Test call, this compound: COc1cc(NS(=O)(=O)c2ccc(-c3cnc(C4CC4)o3)cc2)ccc1F
class 1

Test call, this compound: CCN(CC)CCCC(C)Nc1cnc(C(=O)Nc2cccc3ccc(OC)nc23)cn1 (stereo unspecified)
class 0

Test call, this compound: O=C(/C(=C/c1cccc([N+](=O)[O-])c1)c1ccccc1)c1ccccc1
class 0

Test call, this compound: Cc1ccc2c3c(c(=O)[nH]c2c1)C1(C(C#N)=C(N)O3)c2cc(Br)ccc2-c2ccc(Br)cc21
class 0
